System: TYK2(JH1domain-catalytic)
Details: concentration: 1 μM, replicates: in singlicate; n = 1;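 further: KINOMEscan kinase panel screen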
value type: %Inh

item smiles: Cc1ccc(C)c(NC(=O)NCCNc2ccnc(Nc3ccc(F)cc3)n2)c1
experimental value: 26%

item smiles: C[C@H]1CC[C@@H](C(=O)Nc2ccccc2)CN1c1cc(-c2ccc3c(N)n[nH]c3c2)nc(N)n1
experimental value: 0%

item smiles: Cl.O=S(=O)(c1cccc(F)c1)c1ccc(Nc2ncnc3cc(Br)sc23)cc1Cl
experimental value: 4%

item smiles: COc1ccc(NC(=O)c2ccc(-c3cc(-c4nnc(C)o4)ccc3C)cc2)cc1
experimental value: 12%

---

The molecules listed here are annotated with their %Inh.
Tested on: ASK1
Construct: gene MAP3K5
Conditions: concentration: 1 μM, replicates: in singlicate; n = 1

molecule: CCCc1ccc(S(=O)(=O)NC2CCN(c3ccnc(Nc4ccc(OC)cc4)n3)C2)cc1 (stereo not drawn) [GSK1379737]
reading unit: %
%Inh: 0

molecule: Cc1ccc(O)cc1Nc1cc(C(F)(F)F)nc2ccc(-c3ccncc3)cc12 [GW630823]
reading unit: %
%Inh: 30

molecule: CCc1nc(-c2cccc(C)c2)c(-c2ccnc(NC(=O)c3ccccc3)c2)s1
reading unit: %
%Inh: 9

molecule: Cl.Cl.c1ccc(-c2cc3ccncc3cc2OC2CCNCC2)cc1 [GSK1122999]
reading unit: %
%Inh: 0

molecule: Nc1n[nH]c2nnc(-c3ccccc3)cc12 [SB-517389]
reading unit: %
%Inh: 61

molecule: COc1ccc(Nc2nccc(N3CCC(NC(=O)Nc4ccc5c(c4)OCO5)C3)n2)cc1 (stereo not drawn) [GSK1379745]
reading unit: %
%Inh: 9

molecule: CN1c2ccc(-c3ccc(C(=O)NCCO)cc3)cc2-c2[nH]ncc2S1(=O)=O
reading unit: %
%Inh: 34

molecule: Cn1ccc2ncnc(Nc3ccc(Oc4cccc(Cl)c4)c(Cl)c3)c21
reading unit: %
%Inh: 0

molecule: COC(=O)c1cccc(NC(=O)NCCNc2ccnc(Nc3ccc(F)cc3)n2)c1 [GSK1379883]
reading unit: %
%Inh: 0

---

Test system: DYRK2
Details: concentration: 1 μM, replicates: in singlicate; n = 1

molecule: Cn1ccc2ncnc(Nc3ccc(Oc4cccc(Cl)c4)c(Cl)c3)c21
%Inh, %: 33
--
molecule: COc1ccc(NC(=O)c2ccc(-c3cc(-c4nnc(C)o4)ccc3C)cc2)cc1 [GW595885]
%Inh, %: 4
--
molecule: Oc1ccc2ncnc(Nc3ccc(OCc4ccccc4)cc3)c2c1 [GI262866]
%Inh, %: 18
--
molecule: COc1ccc(Nc2nccc(N3CCC(NC(=O)Nc4ccc5c(c4)OCO5)C3)n2)cc1 (centres unmarked) [GSK1379745]
%Inh, %: 7
--
molecule: Cl.Cn1ccc(-c2cccc(Nc3ccnc4cc(-c5nccs5)ccc34)c2)n1 [GW525701]
%Inh, %: 0
--
molecule: Cl.c1ccc(Cn2ncc3cc(Nc4ncnc5ccccc45)ccc32)cc1 [GW273749]
%Inh, %: 16
--
molecule: Fc1cccc(COc2ccc(Nc3ncnc4nn5ccccc5c34)cc2Cl)c1 [GW689066]
%Inh, %: 0
--
molecule: COc1ccc(Nc2nccc(N3CCC(NC(=O)c4cccc(NC(C)=O)c4)C3)n2)cc1 (centres unmarked) [GSK1379732]
%Inh, %: 7
--
molecule: Cl.Cl.c1ccc(-c2cc3ccncc3cc2OC2CCNCC2)cc1 [GSK1122999]
%Inh, %: 21
--
molecule: Nc1nc(-c2ccccn2)c(-c2ccnc3ccccc23)s1 [GW548057]
%Inh, %: 9
--
molecule: O=C(Nc1ccccc1F)NC1CCN(c2ccnc(Nc3ccc(F)cc3)n2)C1 (centres unmarked) [GSK1379722]
%Inh, %: 0
--
molecule: CNc1nccc(-c2c(-c3ccc(F)cc3)ncn2C2CCN(C)CC2)n1 [SB-222903]
%Inh, %: 0
--
molecule: CCC(CC)(CC)n1cnc2c(N)ncnc21 [SKF-97620]
%Inh, %: 20
--
molecule: CSc1ccc(NC2=C(c3ccccc3Cl)C(=O)NC2=O)cc1 [SB-342411]
%Inh, %: 3
--
molecule: Clc1cccc(-c2nc(Nc3ccncc3)c3ccccc3n2)c1 [GW873004]
%Inh, %: 7
--
molecule: CC(C)N1CCC(n2cnc(-c3ccc(F)cc3)c2-c2ccnc(N)n2)CC1 [SB-223132]
%Inh, %: 0
--
molecule: CCc1nc(-c2cccc(N(C)S(=O)(=O)c3ccccc3)c2)c(-c2ccnc(Nc3ccc(N4CCN(C(C)=O)CC4)nc3)n2)s1 [GSK1645895]
%Inh, %: 29
--
molecule: Cc1cccc(-c2nc(Nc3ccc4[nH]nnc4c3)c3ccccc3n2)n1 [GW867587]
%Inh, %: 26
--
molecule: Clc1cc(Nc2ncnc3cc[nH]c23)ccc1OCc1ccccn1
%Inh, %: 17
--
molecule: FC(F)(F)c1ccc(-c2cc(-c3c[nH]nc3-c3ccccn3)ccn2)cc1 [GW599550]
%Inh, %: 0
--
molecule: O=C(CCO)NCCn1ccc2ncnc(Nc3ccc(Oc4cccc(C(F)(F)F)c4)c(Cl)c3)c21
%Inh, %: 0
--
molecule: OCCOCCn1ccc2ncnc(Nc3ccc(Oc4cccc(Cl)c4)c(Cl)c3)c21
%Inh, %: 0
--
molecule: O=C(c1ccc(-c2cc(-c3c[nH]nc3-c3ccccn3)ccn2)cc1)N1CCCC1 [GW792479]
%Inh, %: 0
--
molecule: Nc1nc(-c2cccnc2)c(-c2ccnc3ccccc23)s1 [GW684083]
%Inh, %: 9
--
molecule: O=C(Nc1ccccc1)Nc1ccc(Oc2ccc3nccn3n2)cc1
%Inh, %: 70
--
molecule: Cl.Fc1ccccc1COc1ccc(Nc2ncnc3ccc(-c4nnc(C(F)(F)F)o4)cc23)cc1Cl [GW424170]
%Inh, %: 11
--
molecule: Cc1cc(N2CCC(NS(=O)(=O)c3ccc(F)cc3)CC2)nc(Nc2cccc(C#N)c2)n1.O=C(O)C(F)(F)F [GSK1653537]
%Inh, %: 5
--
molecule: Cn1ccc2ncnc(Oc3ccc(NC(=O)Nc4cccnc4)c(Cl)c3)c21
%Inh, %: 14
--
molecule: Nc1nc(-c2ccc3c(N)n[nH]c3c2)cc(N2CCC[C@@H](C(=O)Nc3ccccc3)C2)n1.O=C(O)C(F)(F)F.O=C(O)C(F)(F)F [GSK2288359]
%Inh, %: 32

---

Tested on: PIP5K2C
Construct: gene PIP4K2C
Details: concentration: 1 μM, replicates: in singlicate; n = 1
So basically: is %Inh under 20%? Then 1.0. Not under? Then 0.0.

molecule: Cc1ccc(O)cc1Nc1cc(C(F)(F)F)nc2ccc(-c3ccncc3)cc12 [GW630823]
cat: 1.0

molecule: O=C(Nc1n[nH]c2nc(-c3ccco3)c(Br)cc12)c1ccc(CN2CCCC2)cc1.O=C(O)[C@H](O)[C@@H](O)C(=O)O [SB-742352]
cat: 1.0

molecule: Cn1ccc2ncnc(Nc3ccc(Oc4cccc(Cl)c4)c(Cl)c3)c21
cat: 0.0

molecule: CNc1nccc(-c2c(-c3ccc(F)cc3)ncn2CCCN2CCOCC2)n1 [SB-222516]
cat: 1.0

molecule: Oc1ccc2ncnc(Nc3ccc(OCc4ccccc4)cc3)c2c1 [GI262866]
cat: 0.0

molecule: Cl.Fc1ccccc1COc1ccc(Nc2ncnc3ccc(-c4nnc(C(F)(F)F)o4)cc23)cc1Cl [GW424170]
cat: 1.0

molecule: FC(F)(F)c1ccc(-c2cc(-c3c[nH]nc3-c3ccccn3)ccn2)cc1 [GW599550]
cat: 0.0

molecule: CC(C)(C)c1ccc(-n2cnc3c(N)ncnc32)cc1 [SKF-97263]
cat: 0.0

molecule: Clc1cc(Nc2ncnc3cc[nH]c23)ccc1OCc1ccccn1
cat: 1.0

molecule: CCc1nc(-c2cccc(C)c2)c(-c2ccnc(NC(=O)c3ccccc3)c2)s1
cat: 0.0

molecule: COC(=O)c1cccc(NC(=O)NCCNc2ccnc(Nc3ccc(F)cc3)n2)c1 [GSK1379883]
cat: 0.0

molecule: O=c1cc(N2CCOCC2)nc2n(Cc3cccc(Cl)c3)ccn12 [GSK2296823]
cat: 1.0

molecule: Cc1cccc(-c2nc(Nc3ccc4[nH]nnc4c3)c3ccccc3n2)n1 [GW867587]
cat: 1.0

molecule: CC(C)(C)OC(=O)NC1CCCN(c2cc(-c3ccc4c(N)n[nH]c4c3)nc(N)n2)C1 (stereo not shown) [GSK2286096]
cat: 1.0

molecule: FC(F)(F)c1ccc(-c2nn3ncccc3c2-c2ccnc(Nc3cccc(C(F)(F)F)c3)n2)cc1 [GW828205]
cat: 1.0

molecule: Cn1ccc2ncnc(Oc3ccc(NC(=O)Nc4cccnc4)c(Cl)c3)c21
cat: 1.0

molecule: CCCc1ccc(S(=O)(=O)NC2CCN(c3ccnc(Nc4ccc(OC)cc4)n3)C2)cc1 (stereo not shown) [GSK1379737]
cat: 0.0

molecule: Cl.c1ccc(Cn2ccc3cc(Nc4ncnc5ccccc45)ccc32)cc1 [GW275568]
cat: 0.0

molecule: Nc1nccc2scc(-c3ccc4c(c3)CCN4C(=O)Cc3cc(F)ccc3F)c12 [GSK2587663]
cat: 1.0

molecule: CSc1ccc(NC2=C(c3ccccc3Cl)C(=O)NC2=O)cc1 [SB-342411]
cat: 1.0

molecule: Cl.O=S(=O)(c1cccc(F)c1)c1ccc(Nc2ncnc3cc(Br)sc23)cc1Cl [GSK306886]
cat: 0.0

molecule: Fc1ccc(-c2ncn(CCCNCc3ccccc3)c2-c2ccncc2)cc1
cat: 1.0
